test: Distribution coefficient measured in Octanol/buffer (0.15 M KCl); type: physicochemical
# logD >= -0.4 gives met, anything below gives not met

Say whether COCCc1ccc(OCC(O)CNC(C)C)cc1 (stereo not drawn) shows logD of -0.4 or more.
not met

Check this compound for logD at or above -0.4: O=C(NCCNCC(O)COc1ccc(CCOCCOCC2CC2)cc1)N1CCC(O)CC1 (stereo not drawn)
met

# bool: logD of CC(=O)Nc1ccc(OCC(O)CNC(C)C)cc1 (stereo not drawn) >= -0.4
not met

Assess whether reported logD for CC(C)NCC(O)COc1ccc(NC=O)cc1 (stereo not drawn) sits at -0.4 or higher.
not met

Evaluate C=CCOc1ccccc1OCC(O)CNC(C)C (stereo not drawn) : logD at minimum -0.4?
met

Check this compound for logD at or above -0.4: CC(C)NCC(O)COc1cccc2[nH]ccc12 (stereo not drawn)
not met

Could you please find out whether CCC(=O)Nc1ccc(OCC(O)CNC(C)C)cc1 (stereo not drawn) has logD that meets -0.4 or exceeds it?
not met

Check the entry C=CCc1ccccc1OCC(O)CNC(C)C (stereo not drawn) : does logD equal or exceed -0.4?
met
